Test system: L1210 leukemia ip in BDF1 mice, survival T/C
protocol_details: NCI In Vivo Anticancer Drug Screen. Data for tumor model L1210 Leukemia (intraperitoneal) in B6D2F1 (BDF1) mice
protocol_conditions: endpoint: mean survival time; dose: 50.0 mg/kg/injection; schedule: Q01DX009 (ip); vehicle: Klucel (hydroxypropylcellulose) (HPC); higher = longer survival
Inconclusive results and toxic doses are left out.
quantity_kind: T/C

Here are 5 compounds together with their reported answers.
[
  {
    "compound": "Cc1cc(C(=O)O)c(C)n1-c1cccc(C(=O)O)c1",
    "T/C": "102 % of control"
  },
  {
    "compound": "O=C(Nc1ccc(Cl)cc1)Oc1c(Cl)cc(S(=O)(=O)F)cc1Cl",
    "T/C": "97 % of control"
  },
  {
    "compound": "O=c1ccc(=O)c2c(=O)c3ccccc3c(=O)c1=2",
    "T/C": "97 % of control"
  },
  {
    "compound": "Cc1ccc(NC(=O)Oc2c(C)cccc2C)c([N+](=O)[O-])c1",
    "T/C": "93 % of control"
  },
  {
    "compound": "CC=C1C(C(=O)O)C1C(=O)O (stereo not given)",
    "T/C": "93 % of control"
  }
]

query: Hello, please tell me recorded T/C for this one: Cc1ccccc1CN1CCN(CCOC(c2ccccc2)c2ccccc2Cl)CC1 (stereo not given)
result: 102 % of control

query: Hello, please tell me recorded T/C for this one: CCOC(=O)N/N=C(/C)c1cccc([N+](=O)[O-])c1
result: 103 % of control

query: Hello, please tell me recorded T/C for this one: Cc1cccc(Cl)c1NC(=O)Cn1cccc1
result: 95 % of control

query: Hello, please tell me recorded T/C for this one: CCOC(CNC(=O)OCc1ccccc1)OCC
result: 98 % of control

query: Hello, please tell me recorded T/C for this one: CC(NC(C)c1ccccc1)c1ccccc1 (stereo not given)
result: 102 % of control

###

Test system: L1210 leukemia ip in BDF1 mice, survival T/C
protocol_details: NCI In Vivo Anticancer Drug Screen. Data for tumor model L1210 Leukemia (intraperitoneal) in B6D2F1 (BDF1) mice
protocol_conditions: endpoint: mean survival time; dose: 200.0 mg/kg/injection; schedule: Q04DX003 (ip); vehicle: saline; higher = longer survival
Procedure: The antitumor activity of compounds was measured in mice bearing transplantable tumors. Survival or tumor size were measured and the results are expressed as the measurement made in the treated group (T) divided by the measurement made in the vehicle treated control group (C). The tumor model used in this assay is L1210 Leukemia (intraperitoneal) in B6D2F1 (BDF1) mice
Inconclusive results and toxic doses are left out.
quantity_kind: T/C

Here are 7 compounds together with their reported answers.
[
  {
    "compound": "COc1cc2cc[n+](C)cc2cc1OC",
    "T/C": "107 % of control"
  },
  {
    "compound": "C/C(=C/c1c(C)[nH]c(=O)[nH]c1=O)C(=O)O",
    "T/C": "104 % of control"
  },
  {
    "compound": "CCCCN=CC(C)(C)NCCCC",
    "T/C": "104 % of control"
  },
  {
    "compound": "CC(=O)C(=O)N1Cc2cc3ccccc3nc2C1",
    "T/C": "102 % of control"
  },
  {
    "compound": "CCc1c[n+]([O-])c(C)cc1[N+](=O)[O-]",
    "T/C": "122 % of control"
  },
  {
    "compound": "CCCCN1C(=O)CCC1=O",
    "T/C": "103 % of control"
  },
  {
    "compound": "N#CC(=N)N1CCCCC1",
    "T/C": "112 % of control"
  }
]

Next compound, T/C to be filled in.
query: Hello, please tell me recorded T/C for this one: OCC(O)C(O)C(O)/C=N\O (stereo not drawn)
result: 107 % of control

###

Tested on: L1210 leukemia ip in BDF1 mice, survival T/C
protocol_details: NCI In Vivo Anticancer Drug Screen. Data for tumor model L1210 Leukemia (intraperitoneal) in B6D2F1 (BDF1) mice
protocol_conditions: endpoint: mean survival time; dose: 400.0 mg/kg/injection; schedule: Q04DX003 (ip); vehicle: Klucel (hydroxypropylcellulose) (HPC); higher = longer survival
Inconclusive results and toxic doses are left out.
quantity_kind: T/C

Here are 3 compounds together with their reported answers.
[
  {
    "compound": "N#CC1(Cc2ccc(Br)cc2)c2cc(OC(=O)c3ccccc3)ccc2C=CN1C(=O)c1ccccc1 (centres undefined)",
    "experimental_system": "L1210 leukemia ip in BDF1 mice, survival T/C",
    "T/C": "99 % of control"
  },
  {
    "compound": "NN(CC1=COc2ccccc2O1)Cc1ccccc1",
    "experimental_system": "L1210 leukemia ip in BDF1 mice, survival T/C",
    "T/C": "97 % of control"
  },
  {
    "compound": "Cc1c(N=O)c(=O)n(-c2ccccc2)n1C",
    "experimental_system": "L1210 leukemia ip in BDF1 mice, survival T/C",
    "T/C": "98 % of control"
  }
]

Next compound, T/C to be filled in.
query: Give the observed T/C of CC(C)(C)C(=O)CN1C(=O)c2ccccc2C1=O for L1210 leukemia ip in BDF1 mice, survival T/C.
result: 103 % of control

###

Tested on: L1210 leukemia ip in BDF1 mice, survival T/C
protocol_details: NCI In Vivo Anticancer Drug Screen. Data for tumor model L1210 Leukemia (intraperitoneal) in B6D2F1 (BDF1) mice
protocol_conditions: endpoint: mean survival time; dose: 100.0 mg/kg/injection; schedule: Q01DX009 (ip); vehicle: Klucel (hydroxypropylcellulose) (HPC); higher = longer survival
Inconclusive results and toxic doses are left out.
quantity_kind: T/C

Here are 5 compounds together with their reported answers.
[
  {
    "compound": "COc1ccc(CCN=Cc2ccc(Cl)cc2)cc1OC",
    "experimental_system": "L1210 leukemia ip in BDF1 mice, survival T/C",
    "T/C": "104 % of control"
  },
  {
    "compound": "COc1ccccc1NC(=O)Nc1ccc(F)cc1",
    "experimental_system": "L1210 leukemia ip in BDF1 mice, survival T/C",
    "T/C": "95 % of control"
  },
  {
    "compound": "C1=C(c2ccccc2)CCCC1",
    "experimental_system": "L1210 leukemia ip in BDF1 mice, survival T/C",
    "T/C": "92 % of control"
  },
  {
    "compound": "CC1CC(NC(=S)N(C)C)CC(C)(C)C1 (stereo unspecified)",
    "experimental_system": "L1210 leukemia ip in BDF1 mice, survival T/C",
    "T/C": "100 % of control"
  },
  {
    "compound": "Cn1c2c(c(=O)n(C)c1=O)C(C(=O)O)CC(=O)N2 (stereo unspecified)",
    "experimental_system": "L1210 leukemia ip in BDF1 mice, survival T/C",
    "T/C": "103 % of control"
  }
]

Next compound, T/C to be filled in.
query: Hello, please tell me recorded T/C for this one: O=C(Cc1ccc([N+](=O)[O-])cc1)c1ccccc1
result: 102 % of control

###

T/C overview
Tested on: L1210 leukemia ip in BDF1 mice, survival T/C
protocol_details: NCI In Vivo Anticancer Drug Screen. Data for tumor model L1210 Leukemia (intraperitoneal) in B6D2F1 (BDF1) mice
protocol_conditions: endpoint: mean survival time; dose: 100.0 mg/kg/injection; schedule: Q01DX001 (ip); vehicle: saline; higher = longer survival
Toxic doses and inconclusive results are not listed.

[
  {
    "compound": "C[n+]1ccccc1C(=O)O",
    "T/C": "97 % of control"
  },
  {
    "compound": "Cc1ccc(S(=O)(=O)Nc2ccccc2O)cc1",
    "T/C": "102 % of control"
  },
  {
    "compound": "Cc1cc(Cl)c(C)c(C(=O)O)c1Cl",
    "T/C": "91 % of control"
  },
  {
    "compound": "O=S(=O)(/C=C(/Br)c1ccccc1)c1ccccc1",
    "T/C": "92 % of control"
  }
]

query: Hello, please tell me recorded T/C for this one: CN1C(=O)c2ccccc2NC(=O)C12OC2c1ccccc1 (configuration not stated)
result: 101 % of control

query: Hello, please tell me recorded T/C for this one: Nc1nc(Cl)nc2c1ncn2C1OC(CO)C(O)C1O (configuration not stated)
result: 92 % of control

query: Hello, please tell me recorded T/C for this one: Nc1nc2c(=O)[nH]c(=O)[nH]c2n1C1OC(CO)C(O)C1O (configuration not stated)
result: 102 % of control

###

Tested on: L1210 leukemia ip in BDF1 mice, survival T/C
protocol_details: NCI In Vivo Anticancer Drug Screen. Data for tumor model L1210 Leukemia (intraperitoneal) in B6D2F1 (BDF1) mice
protocol_conditions: endpoint: mean survival time; dose: 100.0 mg/kg/injection; schedule: Q01DX009 (ip); vehicle: saline; higher = longer survival
Inconclusive results and toxic doses are left out.
quantity_kind: T/C

Here are 10 compounds together with their reported answers.
[
  {
    "compound": "Cc1ccc(S(=O)(=O)OCCC2CCCCC2COS(=O)(=O)c2ccc(C)cc2)cc1 (stereo unspecified)",
    "T/C": "100 % of control"
  },
  {
    "compound": "COc1cc2cc[n+](C)cc2cc1OC",
    "T/C": "108 % of control"
  },
  {
    "compound": "COc1ccc([N+](=O)[O-])c(C=O)c1",
    "T/C": "101 % of control"
  },
  {
    "compound": "NC(Cc1c[nH]c2ccccc12)C(=O)O (stereo unspecified)",
    "T/C": "100 % of control"
  },
  {
    "compound": "CC1c2c(ccc3c2CCC=C3)CCC1CC1=CCCc2ccc3ccccc3c21 (stereo unspecified)",
    "T/C": "107 % of control"
  },
  {
    "compound": "CCCCN=CC(C)(C)NCCCC",
    "T/C": "90 % of control"
  },
  {
    "compound": "O=C1CCSCC1",
    "T/C": "100 % of control"
  },
  {
    "compound": "CCOC1=C(Br)C=CN(S(=O)(=O)c2ccc(C)cc2)c2ccccc21",
    "T/C": "97 % of control"
  },
  {
    "compound": "CP1(=O)CC2OC2C1 (stereo unspecified)",
    "T/C": "89 % of control"
  },
  {
    "compound": "CCN(CC)CC(=O)NCC(CCN1CCCCC1)(CC(C)C)c1cccc2ccccc12 (stereo unspecified)",
    "T/C": "114 % of control"
  }
]

query: Hello, please tell me recorded T/C for this one: Nc1cccc2ccc(S(=O)(=O)O)cc12
result: 106 % of control

query: Hello, please tell me recorded T/C for this one: CCOC(=O)/C=C(/OC(=O)c1ccccc1)c1ccccc1
result: 107 % of control

query: Hello, please tell me recorded T/C for this one: CCN(CC)CCN(C)CCN(CC)CC
result: 102 % of control

query: Hello, please tell me recorded T/C for this one: CCOC(=O)/C(C)=N\N(C)C
result: 92 % of control

query: Hello, please tell me recorded T/C for this one: OC1CCSc2ccc3ccccc3c21 (stereo unspecified)
result: 114 % of control

query: Hello, please tell me recorded T/C for this one: Cn1cnc2cc(Cl)ccc21
result: 104 % of control

query: Hello, please tell me recorded T/C for this one: Cc1cc(O)c2c(c1O)C(=O)c1ccccc1C2=O
result: 95 % of control

query: Hello, please tell me recorded T/C for this one: N#Cc1cnccn1
result: 103 % of control

query: Hello, please tell me recorded T/C for this one: CN1CCC=C(CN2c3ccccc3Sc3ccccc32)C1
result: 124 % of control

query: Hello, please tell me recorded T/C for this one: ClC1=C(Cl)C2(Cl)C3(Cl)C(Cl)=C(Cl)C(Cl)(C34OCCO4)C2(Cl)C12OCCO2 (stereo unspecified)
result: 90 % of control

query: Hello, please tell me recorded T/C for this one: CCCC#CCOCC1CO1 (stereo unspecified)
result: 93 % of control
